meta.source: patent US20030148958A1

- System: corticotropin releasing factor 1 receptor; further: reference of the scale not given here
- Test name: cell-based or functional assay
Ends that are not written are not given here.
Value kind: CRF1R Emax (%)
Give bare numbers, in %.

Give CRF1R Emax for each listed item.
1. IVLSLDVPIGLLQILLEQTRARAAREQATTNARILARV-NH2 [SEQ ID NO 128]
2. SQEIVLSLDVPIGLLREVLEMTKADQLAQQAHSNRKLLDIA-NH2 [SEQ ID NO 7]
3. ZGPPISIDLPSYLLRKMIEIEKQEKEKQQAANNRLLLDTI (C-terminal amide) [SEQ ID NO 56]

Result string:
1: 8; 2: 4; 3: 14
